system: HepG2 cells; assay: MTT cytotoxicity assay, HepG2; type: cell-based; conditions: Homo sapiens, 72 h
observable: pIC50
Would you please state pIC50, meaning minus log10 of the concentration in mol/L, as a bare number?

Incoming: Could you tell me which pIC50 is on file for `COc1cc2c(Oc3ccc(NC(=O)c4nn(-c5ccc(Cl)cc5)ccc4=O)cc3F)ccnc2cc1OCCCN1CCN(C)CC1` ?
Outgoing: 4.85

Incoming: Consider the compound `COc1cc2c(Oc3ccc(NC(=O)c4nn(-c5ccc(Cl)cc5)ccc4=O)cc3F)ccnc2cc1OCCCN1CCC(C)CC1` and give its measured pIC50.
Outgoing: 5.11

Incoming: For the compound `COc1cc2c(Oc3ccc(NC(=O)c4nn(-c5ccc(Br)cc5F)ccc4=O)cc3F)ccnc2cc1OCCCN1CCC(C)CC1` , what pIC50 is on record?
Outgoing: 8.52

----------
In this section, each of the molecules is paired with its reported IC50.
system: HepG2 cells; assay: MTT cytotoxicity assay, HepG2; assay type: cell-based; conditions: Homo sapiens, 72 h
The answer is to be given in µM; state only the numeric part.

Some solved cases for reference:
>>> df
                                   molecule  reported
0  COc1cc2c(Oc3ccc(NC(=O)c4nn(-c5ccc(Br)cc5F)ccc4=O)cc3F)ccnc2cc1OCCCN1CCCCC1 [Compound 35]       3.1
1  COc1ccc(-n2ccc(=O)c(C(=O)Nc3ccc(Oc4ccnc5cc(OCCCN6CCN(C)CC6)c(OC)cc45)c(F)c3)n2)cc1 [Compound 49]      3.68
2  COc1cc2c(Oc3ccc(NC(=O)c4nn(-c5ccc(F)c(Cl)c5)ccc4=O)cc3F)ccnc2cc1OCCCN1CCC(C)CC1 [Compound 42]      1.03

Let us examine a further case.
Incoming: GET /values?readout=IC50&system=HepG2 cells&item= COc1ccc(-n2ccc(=O)c(C(=O)Nc3ccc(Oc4ccnc5cc(OCCCN6CCOCC6)c(OC)cc45)c(F)c3)n2)cc1 [Compound 25]
Outgoing: 6.75

----------
c-Met kinase (Homo sapiens): reported IC50 for various molecules.
Sequence (P08581 25-1390): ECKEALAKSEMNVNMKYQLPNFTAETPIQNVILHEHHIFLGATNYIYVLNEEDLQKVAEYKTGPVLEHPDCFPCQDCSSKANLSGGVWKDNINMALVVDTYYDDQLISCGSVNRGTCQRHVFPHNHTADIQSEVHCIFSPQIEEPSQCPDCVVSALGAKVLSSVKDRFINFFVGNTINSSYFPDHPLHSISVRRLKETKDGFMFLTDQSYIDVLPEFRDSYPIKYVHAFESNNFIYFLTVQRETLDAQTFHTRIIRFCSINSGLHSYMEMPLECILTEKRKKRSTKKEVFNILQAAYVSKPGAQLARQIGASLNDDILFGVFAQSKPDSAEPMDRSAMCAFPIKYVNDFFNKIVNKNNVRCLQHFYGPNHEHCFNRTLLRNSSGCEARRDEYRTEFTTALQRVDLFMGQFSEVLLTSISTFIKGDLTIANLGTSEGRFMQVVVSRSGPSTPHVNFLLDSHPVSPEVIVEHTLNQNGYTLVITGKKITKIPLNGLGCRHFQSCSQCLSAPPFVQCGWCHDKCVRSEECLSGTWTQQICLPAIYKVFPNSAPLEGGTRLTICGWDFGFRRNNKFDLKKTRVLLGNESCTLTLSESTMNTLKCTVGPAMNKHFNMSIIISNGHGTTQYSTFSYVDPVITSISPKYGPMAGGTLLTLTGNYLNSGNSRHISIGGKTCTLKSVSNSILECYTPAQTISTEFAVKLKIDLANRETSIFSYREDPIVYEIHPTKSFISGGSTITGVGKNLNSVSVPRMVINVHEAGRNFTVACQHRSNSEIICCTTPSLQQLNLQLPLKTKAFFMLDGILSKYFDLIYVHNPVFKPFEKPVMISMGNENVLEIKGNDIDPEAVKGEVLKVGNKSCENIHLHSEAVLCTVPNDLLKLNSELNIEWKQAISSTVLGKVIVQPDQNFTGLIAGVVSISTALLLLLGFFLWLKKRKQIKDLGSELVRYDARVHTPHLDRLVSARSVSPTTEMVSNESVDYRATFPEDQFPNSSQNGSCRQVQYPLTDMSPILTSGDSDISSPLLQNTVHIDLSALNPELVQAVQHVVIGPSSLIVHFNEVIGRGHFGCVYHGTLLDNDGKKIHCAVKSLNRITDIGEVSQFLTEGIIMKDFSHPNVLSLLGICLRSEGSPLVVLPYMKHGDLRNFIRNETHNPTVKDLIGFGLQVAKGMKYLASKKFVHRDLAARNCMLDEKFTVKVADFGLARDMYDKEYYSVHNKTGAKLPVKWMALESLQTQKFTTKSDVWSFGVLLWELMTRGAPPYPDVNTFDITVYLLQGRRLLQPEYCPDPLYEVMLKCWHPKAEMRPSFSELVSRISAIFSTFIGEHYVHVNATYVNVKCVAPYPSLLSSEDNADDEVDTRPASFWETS
Answer format: numeric, nM implied, no suffix.

                      smiles_representation  observable  unit_abbrev  reported
0  COc1cc2c(Oc3ccc(NC(=O)c4nn(-c5ccc(F)c(Cl)c5)ccc4=O)cc3F)ccnc2cc1OCCCN1CCC(C)CC1        IC50           nM       1.2
1  COc1cc2c(Oc3ccc(NC(=O)c4nn(-c5ccc(Br)cc5F)ccc4=O)cc3F)ccnc2cc1OCCCN1CCC(C)CC1        IC50           nM         2

Incoming: Query for c-Met kinase (Homo sapiens): what IC50 does the record show for `COc1cc2c(Oc3ccc(NC(=O)c4nn(-c5ccc(F)cc5)ccc4=O)cc3F)ccnc2cc1OCCCN1CCCCC1` ?
Outgoing: 17

Incoming: Short answer please: IC50, c-Met kinase (Homo sapiens), entry `COc1cc2c(Oc3ccc(NC(=O)c4nn(-c5ccccc5)ccc4=O)cc3F)ccnc2cc1OCCCN1CCCCC1`
Outgoing: 4

Incoming: What value of IC50 on c-Met kinase (Homo sapiens) does `COc1cc2c(Oc3ccc(NC(=O)c4nn(-c5ccc(F)cc5)ccc4=O)cc3F)ccnc2cc1OCCCN1CCN(C)CC1` have?
Outgoing: 39
